Please go through the items and note down their IC50.
biological target: hSULT2A1 (Homo sapiens, UniProt Q06520); assay: Inhibition of the sulfation of DHEA catalyzed by hSULT2A1; type: biochemical; details: Actual pIC50, -log IC50 (M), Table 3
Give bare numbers, in M.

Some entries whose results are on file:
# compound, parameter, quantitative readout
measured = [
    ("Oc1c(Cl)cc(-c2ccccc2Cl)cc1Cl [4-OHPCB 34, 4-hydroxy-2′, 3,5-trichlorobiphenyl]", "IC50", "6e-07"),
    ("Oc1c(Cl)cc(-c2ccc(Cl)cc2Cl)cc1Cl", "IC50", "8e-07"),
    ("Oc1ccc(-c2ccc(Cl)c(Cl)c2)cc1 [4′-OHPCB 12, 4′-hydroxy-3,4-dichlorobiphenyl]", "IC50", "1.58e-05"),
    ("Oc1ccc(-c2ccc(Cl)cc2Cl)cc1Cl [4′-OHPCB 25, 4′-hydroxy-2, 3′, 4-trichlorobiphenyl]", "IC50", "4.4e-06"),
    ("Oc1ccc(-c2cc(Cl)ccc2Cl)cc1 [4′-OHPCB 9, 4′-hydroxy-2,5-dichlorobiphenyl]", "IC50", "7.5e-06"),
]

# batch size: 4; output IC50 per entry
1. Oc1ccc(-c2ccccc2Cl)cc1Cl [4′-OHPCB 6, 4′-hydroxy-2, 3′-dichlorobiphenyl]
2. Oc1ccc(-c2cccc(Cl)c2)cc1Cl [4-OHPCB 11, 4-hydroxy-3, 3′-dichlorobiphenyl]
3. Oc1ccc(-c2ccc(Cl)cc2)cc1 [4′-OHPCB 3, 4′-hydroxy-4-monochlorobiphenyl]
4. Oc1c(Cl)cc(-c2cccc(Cl)c2)cc1Cl [4-OHPCB 36, 4-hydroxy-3, 3′, 5-trichlorobiphenyl]

["9.79e-06", "1.4e-05", "2.81e-05", "4.4e-06"]

* * *

Please go through the items and note down their IC50.
target: hSULT2A1 (Homo sapiens); assay: Inhibition of the sulfation of DHEA catalyzed by hSULT2A1; type: biochemical; conditions: Actual pIC50, -log IC50 (M), Table 3
Answers are plain numbers, in M.

Some entries whose results are on file:
# compound, parameter, quantitative readout
measured = [
    ("Oc1ccc(-c2ccc(Cl)cc2)c(Cl)c1 [4-OHPCB 8, 4-hydroxy-2, 4′-dichlorobiphenyl]", "IC50", "1e-05"),
    ("Oc1c(Cl)cc(-c2ccccc2)cc1Cl [4-OHPCB 14, 4-hydroxy-3,5-dichlorobiphenyl]", "IC50", "1.3e-05"),
    ("Oc1ccc(-c2ccc(Cl)c(Cl)c2)c(Cl)c1 [4′-OHPCB 33, 4′-hydroxy-2′, 3,4-trichlorobiphenyl]", "IC50", "2.5e-06"),
]

Next compound, please.
Which value of IC50 has been reported for Oc1ccc(-c2cccc(Cl)c2Cl)cc1O [3′,4′-diOHPCB 5, 3′, 4′-dihydroxy-2,3-dichlorobiphenyl] in the records?
1.59e-05

* * *

molecular target: hSULT2A1 (Homo sapiens, UniProt Q06520); assay: OHPCBs as substrates for hSULT2A1; assay type: biochemical; conditions: 200 μM PAPS; fit to substrate inhibition equation
Please go through the items and note down their Kis (substrate inhibition constant).
Give bare numbers, in µM.

Some entries whose results are on file:
# compound, quantitative readout
records = [
    ("Oc1c(Cl)cc(-c2ccccc2Cl)cc1Cl [4-OHPCB 34, 4-hydroxy-2′, 3,5-trichlorobiphenyl]", 47.4),
    ("Oc1ccc(-c2ccc(Cl)cc2)c(Cl)c1 [4-OHPCB 8, 4-hydroxy-2, 4′-dichlorobiphenyl]", 65.4),
    ("Oc1c(Cl)cc(-c2cccc(Cl)c2)cc1Cl [4-OHPCB 36, 4-hydroxy-3, 3′, 5-trichlorobiphenyl]", 39.4),
    ("Oc1ccc(-c2cccc(Cl)c2)cc1Cl [4-OHPCB 11, 4-hydroxy-3, 3′-dichlorobiphenyl]", 51.9),
    ("Oc1ccc(-c2ccc(Cl)c(Cl)c2)c(Cl)c1 [4′-OHPCB 33, 4′-hydroxy-2′, 3,4-trichlorobiphenyl]", 217),
]

Next compound, please.
Which value of Kis (substrate inhibition constant) has been reported for Oc1c(Cl)cc(-c2ccccc2)cc1Cl [4-OHPCB 14, 4-hydroxy-3,5-dichlorobiphenyl] in the records?
220

* * *

Biological target: hSULT2A1 (Homo sapiens)
Sequence (Q06520 1-285): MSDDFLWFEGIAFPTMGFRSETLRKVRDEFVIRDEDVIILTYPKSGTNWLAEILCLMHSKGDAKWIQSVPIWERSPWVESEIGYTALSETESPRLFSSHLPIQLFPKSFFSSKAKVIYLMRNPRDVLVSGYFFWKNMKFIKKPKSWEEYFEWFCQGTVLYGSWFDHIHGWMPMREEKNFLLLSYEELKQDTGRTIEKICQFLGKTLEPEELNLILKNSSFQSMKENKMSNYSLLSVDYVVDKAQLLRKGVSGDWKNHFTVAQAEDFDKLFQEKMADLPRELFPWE
Test: Inhibition of the sulfation of DHEA catalyzed by hSULT2A1
Format: biochemical
Conditions: IC50 (experimental, Table 3), experimental values used for CoMFA Model 1
parameter: IC50 (µM)
Answers are plain numbers, in µM.

Enter reported IC50 observed with hSULT2A1 (Homo sapiens) for Oc1ccc(-c2ccc(Cl)cc2)cc1O [3′,4′-diOHPCB 3, 3′, 4′-dihydroxy-4-monochlorobiphenyl]
95.7

* * *

molecular target: UniProt Q06520; experiment: Inhibition of the sulfation of DHEA catalyzed by hSULT2A1; type: biochemical; settings: IC50 (inhibition of the sulfation of DHEA catalyzed by hSULT2A1), 1 μM [3H]DHEA, 200 μM PAPS, pH 7.0, 37°C, 10 min; mean ± standard error of the fit
parameter: pIC50
Give bare numbers, as −log10 of the molar value.

Some entries whose results are on file:
# compound, pIC50
records = [
    ("Oc1ccc(-c2ccc(Cl)c(Cl)c2)c(Cl)c1 [4′-OHPCB 33, 4′-hydroxy-2′, 3,4-trichlorobiphenyl]", 5.60),
    ("Oc1c(Cl)cc(-c2cccc(Cl)c2)cc1Cl [4-OHPCB 36, 4-hydroxy-3, 3′, 5-trichlorobiphenyl]", 5.36),
    ("Oc1c(Cl)cc(-c2ccccc2)cc1Cl [4-OHPCB 14, 4-hydroxy-3,5-dichlorobiphenyl]", 4.89),
]

# batch size: 2; output pIC50 per entry
1. Oc1ccc(-c2ccc(Cl)cc2Cl)cc1Cl [4′-OHPCB 25, 4′-hydroxy-2, 3′, 4-trichlorobiphenyl]
2. Oc1ccc(-c2ccc(Cl)cc2)cc1 [4′-OHPCB 3, 4′-hydroxy-4-monochlorobiphenyl]

1: 5.36; 2: 4.55

* * *

Biological target: hSULT2A1 (Homo sapiens, UniProt Q06520)
Sequence (Q06520 1-285): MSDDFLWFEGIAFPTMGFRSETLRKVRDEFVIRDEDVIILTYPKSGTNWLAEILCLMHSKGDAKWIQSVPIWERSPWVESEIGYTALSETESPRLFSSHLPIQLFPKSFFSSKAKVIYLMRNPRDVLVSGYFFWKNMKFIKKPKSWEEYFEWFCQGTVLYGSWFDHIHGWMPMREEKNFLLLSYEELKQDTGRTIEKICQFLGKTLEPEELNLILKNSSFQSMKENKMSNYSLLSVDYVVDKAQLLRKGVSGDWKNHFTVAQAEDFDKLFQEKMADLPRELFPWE
Experiment: Inhibition of the sulfation of DHEA catalyzed by hSULT2A1
Assay type: biochemical
Settings: read-out: IC50 (inhibition of the sulfation of DHEA catalyzed by hSULT2A1); 1 μM [3H]DHEA, 200 μM PAPS, pH 7.0, 37°C, 10 min; mean ± standard error of the fit
parameter: pIC50
Answers are plain numbers, as −log10 of the molar value.

Which value of pIC50 has been reported for Oc1ccc(Cl)cc1-c1ccc(Cl)c(Cl)c1 [6′-OHPCB 35, 6′-hydroxy-3, 3′-4 trichlorobiphenyl] in the records?
4.80

* * *

Biological target: UniProtKB Q06520
Sequence (Q06520 1-285): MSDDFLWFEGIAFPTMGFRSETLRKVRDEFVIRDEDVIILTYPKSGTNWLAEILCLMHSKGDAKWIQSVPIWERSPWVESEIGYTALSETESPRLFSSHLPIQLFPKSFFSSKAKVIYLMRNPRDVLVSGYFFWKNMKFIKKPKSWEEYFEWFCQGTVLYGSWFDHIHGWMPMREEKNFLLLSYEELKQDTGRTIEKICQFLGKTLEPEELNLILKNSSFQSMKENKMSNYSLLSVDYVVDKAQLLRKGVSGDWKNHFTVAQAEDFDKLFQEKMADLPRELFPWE
Experiment: CoMFA 3D-QSAR model for inhibition of hSULT2A1 by OHPCBs
Details: CoMFA Model 1
parameter: Difference between the experimental and the predicted values for pIC50

Some entries whose results are on file:
# compound, target desc, result
records = [
    ("Oc1ccc(-c2ccc(Cl)cc2)c(Cl)c1 [4-OHPCB 8, 4-hydroxy-2, 4′-dichlorobiphenyl]", "UniProtKB Q06520", 0.303),
    ("Oc1ccc(-c2ccc(Cl)cc2)cc1O [3′,4′-diOHPCB 3, 3′, 4′-dihydroxy-4-monochlorobiphenyl]", "UniProtKB Q06520", 0.072),
    ("Oc1ccc(Cl)cc1-c1ccc(Cl)c(Cl)c1 [6′-OHPCB 35, 6′-hydroxy-3, 3′-4 trichlorobiphenyl]", "UniProtKB Q06520", 0.088),
    ("Oc1ccc(-c2cccc(Cl)c2)cc1Cl [4-OHPCB 11, 4-hydroxy-3, 3′-dichlorobiphenyl]", "UniProtKB Q06520", 0.011),
    ("Oc1c(Cl)cc(-c2cccc(Cl)c2)cc1Cl [4-OHPCB 36, 4-hydroxy-3, 3′, 5-trichlorobiphenyl]", "UniProtKB Q06520", 0.088),
]

# batch size: 2; output Difference between the experimental and the predicted values for pIC50 per entry
1. Oc1ccc(-c2cc(Cl)ccc2Cl)cc1 [4′-OHPCB 9, 4′-hydroxy-2,5-dichlorobiphenyl]
2. Oc1ccc(-c2ccc(Cl)c(Cl)c2)cc1 [4′-OHPCB 12, 4′-hydroxy-3,4-dichlorobiphenyl]

[0.011, 0.039]
